// pIC50 lookup, one value per entry
- tested system: HIV-1 IN (wild-type) in the presence of LEDGF/p75 (Human immunodeficiency virus type 1 group M subtype B)
- Construct: IN is a 32 kDa multimeric enzyme comprising three domains; His; made in house; host or cells: Escherichia coli BL21 (DE3)
- experimental protocol: HTRF HIV-1 IN LEDGF/p75-dependent assay (3'-processing and strand transfer), wild-type IN, with or without sucrose
- Assay type: biochemical
- measurement conditions: IC50 IN LEDGF/p75-dependent integration, in the presence of LEDGF/p75, compound alone, mean ± SE, three experiments
Please treat pIC50 as minus the base-10 logarithm of the molar concentration.

Please give measured pIC50 of the following entry: O=c1[nH]c(-c2cc(O)c(O)cc2O)nc2sc3c(c12)CCC3
5.71

Report measured pIC50; entry is O=c1[nH]c(-c2cc(O)c(O)c(O)c2)nc2sc3c(c12)CCCCC3
6.51

Identify pIC50 associated with the compound Cc1sc2nc(-c3ccc(O)c(O)c3O)[nH]c(=O)c2c1C
4.93

Name the recorded pIC50 of the compound listed here: CCCC(C(=O)O)c1c(C)nc2ccc(Cl)cc2c1-c1ccccc1 (stereo not shown) [LEDGIN-6, reference compound]
5.05

For O=c1[nH]c(-c2cc(O)c(O)c(O)c2)nc2sc3c(c12)CCC3 , write its pIC50.
6.06

Write down pIC50 measured for item Cc1sc2nc(-c3cc(O)c(O)cc3O)[nH]c(=O)c2c1C
6.35

Tell me pIC50 reported for Cc1sc2nc(-c3cc(O)c(O)c(O)c3)[nH]c(=O)c2c1C
5.10

Using the record for O=c1[nH]c(-c2c(O)cc(O)cc2O)nc2sc3c(c12)CCCCC3 , state its measured pIC50.
5.28

Please report pIC50 for the following compound: Cc1sc2nc(-c3c(O)cc(O)cc3O)[nH]c(=O)c2c1C
5.21

Give the measured pIC50 for O=c1[nH]c(-c2cc(O)c(O)cc2O)nc2sc3c(c12)CCCCC3
6.02
